Molecular target: JAK1 (Homo sapiens)
Construct: 5 μl of catalytic domain recombinant Kinase enzyme+Tyr peptide substrate (Invitrogen, CA)
Sequence (P23458 875-1153 limits assumed): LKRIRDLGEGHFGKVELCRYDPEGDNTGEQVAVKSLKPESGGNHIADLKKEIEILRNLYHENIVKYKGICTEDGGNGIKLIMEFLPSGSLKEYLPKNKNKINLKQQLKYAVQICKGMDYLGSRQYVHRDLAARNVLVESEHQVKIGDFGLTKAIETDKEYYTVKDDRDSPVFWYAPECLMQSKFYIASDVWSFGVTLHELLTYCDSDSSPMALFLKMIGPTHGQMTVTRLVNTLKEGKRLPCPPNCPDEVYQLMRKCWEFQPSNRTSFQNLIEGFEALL
Assay: Z'-LYTE kinase assay JAK1
Please provide measured IC50 for the entries that follow.

Some solved entries appear below for comparison.
In [3]: df
Out[3]:
                                   compound  measurement_name          result
0  NC(=O)c1cnc(Nc2ccc(N3CCOCC3)cc2)cc1NC1(c2ccccc2)CC1 [Example 125]              IC50       > 1000 nM
1  CCC(=O)N1CCC(c2ccc(Nc3cc(NCc4cccc5[nH]ncc45)c(C(N)=O)cn3)cc2)CC1 [Example 210]              IC50    10 to 100 nM
2  CN(C)C(=O)C1CCN(c2ccc(Nc3cc(NCc4cccc5[nH]ccc45)c(C(N)=O)cn3)cc2)CC1 [Example 345]              IC50      1 to 10 nM
3  CN(C)C(=O)c1ccc(Nc2cc(NCc3cccc(-n4ccnc4)c3)c(C(N)=O)cn2)cc1 [Example 224]              IC50  100 to 1000 nM
4  Cc1cc(Nc2cc(NCc3cccc4ccsc34)c(C(N)=O)cn2)ccc1C(=O)N(C)C [Example 285]              IC50    10 to 100 nM

Shift focus to the following entry.
Exercise: Tell me its IC50 given NC(=O)c1cnc(Nc2ccc3c(c2)NC(=O)CO3)cc1NCc1ccccc1 [Example 84] as the entry.
Solution: > 1000 nM
